Where do these numbers come from? They come from patent US8962842B2.

- Tested on: Streptococcus pyogenes (4 strains)
- assay-summary: MIC range, broader panel of Quotient Bioresearch strains (Table 3)
- study-conditions: read-out: MIC Range High, Streptococcus pyogenes (4 strains)
reported-property: MIC
The reply must contain the numeric value and, after it, the unit.

Use these answered entries as a reference point.
{"compound": "Cc1c(-c2ccc(N)c(F)c2)ccn2c(=O)c(C(=O)[O-])cc(C3CC3)c12.[K+] [Example 2 K salt]", "system-tested": "Streptococcus pyogenes (4 strains)", "observed": "0.12 µg/mL"}
{"compound": "Cc1c(-c2ccc3[nH]ncc3c2)ccn2c(=O)c(C(=O)[O-])cc(C3CC3)c12.[K+] [Example 23 K salt]", "system-tested": "Streptococcus pyogenes (4 strains)", "observed": "0.03 µg/mL"}
{"compound": "Cc1c(-c2ccc(C(N)=O)cc2)c(F)cn2c(=O)c(C(=O)[O-])cc(C3CC3)c12.[K+] [Example 6 K salt]", "system-tested": "Streptococcus pyogenes (4 strains)", "observed": "0.25 µg/mL"}
{"compound": "Cc1c(-c2ccc(N)c(F)c2)c(F)cn2c(=O)c(C(=O)[O-])cc(C3CC3)c12.[K+] [Example 1 K salt]", "system-tested": "Streptococcus pyogenes (4 strains)", "observed": "1 µg/mL"}
{"compound": "Cc1c(-c2cc(F)c(N)c(F)c2)ccn2c(=O)c(C(=O)[O-])cc(C3CC3)c12.[K+] [Example 39 K salt]", "system-tested": "Streptococcus pyogenes (4 strains)", "observed": "0.25 µg/mL"}
{"compound": "Cc1c(-c2ccncc2)ccn2c(=O)c(C(=O)[O-])cc(C3CC3)c12.[K+] [Example 16 K salt]", "system-tested": "Streptococcus pyogenes (4 strains)", "observed": "1 µg/mL"}

Continue with the next compound.
[in] Looking for the measured MIC of Cc1c(C2=CCNCC2)ccn2c(=O)c(C(=O)O)cc(C3CC3)c12 , can you help?
[out] 8 µg/mL
